Target: human Siglec-7 on primary human monocyte-derived dendritic cells (human, UniProt Q9Y286 19-467)
Sequence (Q9Y286 19-467): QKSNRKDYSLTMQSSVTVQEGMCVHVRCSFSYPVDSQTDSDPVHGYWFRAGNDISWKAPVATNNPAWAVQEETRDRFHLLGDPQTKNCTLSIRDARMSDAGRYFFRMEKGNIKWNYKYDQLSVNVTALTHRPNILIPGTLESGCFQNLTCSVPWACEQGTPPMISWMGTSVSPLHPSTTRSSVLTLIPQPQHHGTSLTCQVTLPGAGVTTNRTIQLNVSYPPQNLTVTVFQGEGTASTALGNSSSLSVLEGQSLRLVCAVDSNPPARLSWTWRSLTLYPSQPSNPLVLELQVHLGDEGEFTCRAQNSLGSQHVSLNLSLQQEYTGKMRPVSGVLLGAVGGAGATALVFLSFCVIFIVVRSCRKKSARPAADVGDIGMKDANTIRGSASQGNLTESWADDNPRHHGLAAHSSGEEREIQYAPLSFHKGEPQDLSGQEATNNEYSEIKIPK
Test: cell-based or functional assay
observationType: Fold increase in potency compared to Chimeric Ab (fold)
Number in fold, nothing else.

The cases that follow already have their Fold increase in potency compared to Chimeric Ab on record.
binder	unitString	number
S7AB-H8.39 (antibody, V domains shown) VH: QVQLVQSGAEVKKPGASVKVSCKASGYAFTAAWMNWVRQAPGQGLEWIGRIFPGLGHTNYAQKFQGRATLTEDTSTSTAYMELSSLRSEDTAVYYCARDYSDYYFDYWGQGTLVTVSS VL: DIQMTQSPSSLSASVGDRVTITCRGSQDINTYLNWYQQKPGKAPKLLIYYTSRLHSGVPSRFSGSGSGTDYTLTISSLQPEDFATYYCQQGNVLPWTFGQGTKLEIK	fold	18
S7AB-H8.8 (antibody, V domains shown) VH: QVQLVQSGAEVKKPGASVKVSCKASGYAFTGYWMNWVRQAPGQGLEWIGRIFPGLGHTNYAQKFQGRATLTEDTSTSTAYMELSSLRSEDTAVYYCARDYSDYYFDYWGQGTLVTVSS VL: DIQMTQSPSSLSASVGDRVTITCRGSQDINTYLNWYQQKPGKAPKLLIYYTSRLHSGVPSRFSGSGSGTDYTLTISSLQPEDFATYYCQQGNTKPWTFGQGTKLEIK	fold	11.4

Problem: I would be grateful if you could share the reported Fold increase in potency compared to Chimeric Ab for S7AB-H8.5 (antibody, V domains shown) VH: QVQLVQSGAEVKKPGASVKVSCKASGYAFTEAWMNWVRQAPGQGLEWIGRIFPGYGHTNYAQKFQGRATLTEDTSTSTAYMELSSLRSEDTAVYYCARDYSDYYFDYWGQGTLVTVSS VL: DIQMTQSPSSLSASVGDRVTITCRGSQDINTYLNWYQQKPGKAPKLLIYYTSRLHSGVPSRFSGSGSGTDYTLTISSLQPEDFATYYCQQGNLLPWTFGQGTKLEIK .
Solution: 11.8
